Target: recombinant human ULK1 protein (1-649) (Homo sapiens)
Construct: recombinant human ULK1 protein (1-649, SignalChem #U01-11G); purchased SignalChem U01-11G
Sequence (O75385 1-649): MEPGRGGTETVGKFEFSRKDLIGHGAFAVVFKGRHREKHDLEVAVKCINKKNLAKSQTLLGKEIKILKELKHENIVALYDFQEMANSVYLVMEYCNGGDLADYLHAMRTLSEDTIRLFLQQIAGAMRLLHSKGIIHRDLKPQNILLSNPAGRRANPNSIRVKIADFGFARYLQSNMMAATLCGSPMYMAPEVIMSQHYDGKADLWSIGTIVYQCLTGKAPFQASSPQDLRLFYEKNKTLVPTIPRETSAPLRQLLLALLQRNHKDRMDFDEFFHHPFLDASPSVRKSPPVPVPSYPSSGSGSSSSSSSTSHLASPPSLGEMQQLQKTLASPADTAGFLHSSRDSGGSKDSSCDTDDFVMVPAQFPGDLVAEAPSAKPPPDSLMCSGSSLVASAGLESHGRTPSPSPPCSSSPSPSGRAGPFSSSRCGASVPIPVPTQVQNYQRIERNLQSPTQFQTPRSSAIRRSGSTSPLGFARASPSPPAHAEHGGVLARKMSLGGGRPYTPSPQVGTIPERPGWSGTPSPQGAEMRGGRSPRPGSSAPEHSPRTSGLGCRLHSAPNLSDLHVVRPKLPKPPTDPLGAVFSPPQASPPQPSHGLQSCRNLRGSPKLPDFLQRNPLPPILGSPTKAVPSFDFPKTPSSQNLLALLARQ
Test: ULK1 inhibition assay (ADP Glo)
Type: biochemical
Details: Table 1; 25 uM ATP, MBP substrate, one hour
observed property: IC50

- compound: "FC(F)(F)c1cnc(Nc2ccc3c(c2)CN(Cc2ccncn2)CC3)nc1NC1CC1"
  target or system: "recombinant human ULK1 protein (1-649) (Homo sapiens)"
  IC50: "< 1 nM"
- compound: "FC(F)(F)c1cnc(Nc2ccc3c(c2)CCN(C2COC2)C3)nc1NC1CC1"
  target or system: "recombinant human ULK1 protein (1-649) (Homo sapiens)"
  IC50: "1 to 10 nM"
- compound: "FC(F)(F)c1cnc(Nc2ccc3c(c2)CCN(Cc2ccco2)C3)nc1NC1CC1"
  target or system: "recombinant human ULK1 protein (1-649) (Homo sapiens)"
  IC50: "< 1 nM"
- compound: "CNC(=O)c1ccccc1Nc1nc(Nc2ccc3c(c2)CN(CCN)CC3)ncc1Br"
  target or system: "recombinant human ULK1 protein (1-649) (Homo sapiens)"
  IC50: "> 10 nM"
- compound: "CN(C)c1ccc(CN2CCc3cc(Nc4ncc(C(F)(F)F)c(NC5CC5)n4)ccc3C2)cc1"
  target or system: "recombinant human ULK1 protein (1-649) (Homo sapiens)"
  IC50: "< 1 nM"
- compound: "CNC(=O)c1ccccc1Nc1nc(Nc2ccc3c(c2)CN(CC(=O)N2CCOCC2)CC3)ncc1Br"
  target or system: "recombinant human ULK1 protein (1-649) (Homo sapiens)"
  IC50: "> 10 nM"

// next item, IC50 requested
Asked: Name the recorded IC50 for Cn1cc(CN2CCc3cc(Nc4ncc(C(F)(F)F)c(NC5CC5)n4)ccc3C2)cn1 .
Given back: < 1 nM
